# System: K562
# assayProcedure: Growth inhibition of human K562 cells by sulforhodamine B assay
# Format: functional
# measurementContext: read-out: GI50
propertyMeasured: GI50 (µM)

compound="C/C=C(/C)C(=O)O[C@@H]1CC(C)(C)C[C@H]2C3=CC[C@@H]4[C@@]5(C)CC[C@H](O)C(C)(C)[C@@H]5CC[C@@]4(C)[C@]3(C)CC[C@@]12C(=O)O [Reduced Lantadene A]" reading=2.64
compound=CC(C)=CC(=O)O[C@@H]1CC(C)(C)C[C@H]2C3=CC[C@@H]4[C@@]5(C)CCC(=O)C(C)(C)[C@@H]5CC[C@@]4(C)[C@]3(C)CC[C@@]12C(=O)O reading=3.47
compound="C/C=C(/C)C(=O)O[C@@H]1CC(C)(C)C[C@H]2C3=CC[C@@H]4[C@@]5(C)CCC(=O)C(C)(C)[C@@H]5CC[C@@]4(C)[C@]3(C)CC[C@@]12C(=O)O [LANTADENE A]" reading=4.72
compound=CC1(C)C[C@@H](O)[C@]2(C(=O)O)CC[C@]3(C)C(=CC[C@@H]4[C@@]5(C)C/C(=C\C=C\c6ccccc6)C(=O)C(C)(C)[C@@H]5CC[C@]43C)[C@@H]2C1 reading=3.74
compound="CC(C)=CC(=O)O[C@@H]1CC(C)(C)C[C@H]2C3=CC[C@@H]4[C@@]5(C)CC[C@H](O)C(C)(C)[C@@H]5CC[C@@]4(C)[C@]3(C)CC[C@@]12C(=O)O [Reduced Lantadene B]" reading=3.38
